Molecular target: CepR (Burkholderia multivorans)
Sequence (Q93PF7 1-239): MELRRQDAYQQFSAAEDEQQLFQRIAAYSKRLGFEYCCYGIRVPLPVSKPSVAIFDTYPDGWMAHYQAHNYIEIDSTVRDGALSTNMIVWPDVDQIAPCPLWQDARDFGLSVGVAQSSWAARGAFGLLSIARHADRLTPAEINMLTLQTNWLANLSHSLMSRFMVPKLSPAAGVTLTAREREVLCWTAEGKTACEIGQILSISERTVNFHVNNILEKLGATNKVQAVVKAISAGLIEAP
Assay: CepR agonism in B. multivorans cepI::lacZ reporter (Bm-reporter)
Type: cell-based
Details: read-out: Act%
recorded metric: activation at 100 µM (%)
Enter your answer as a number in %; do not include the unit.

Illustrative cases are given below, each with its answer.
Using the record for O=C(CCc1ccc(I)cc1)N[C@H]1CCOC1=O , state its measured activation at 100 µM.
110

Using the record for O=C(Cc1cccc(C(F)(F)F)c1)N[C@H]1CCOC1=O , state its measured activation at 100 µM.
3.1

Using the record for O=C(CCc1ccc(C(F)(F)F)cc1)N[C@H]1CCOC1=O , state its measured activation at 100 µM.
98

Using the record for O=C(CCc1ccc([N+](=O)[O-])cc1)N[C@H]1CCOC1=O , state its measured activation at 100 µM.
91

API: the following record is the query input.
Using the record for CCCCCCCC(=O)N[C@H]1CCOC1=O [Compound C8-AHL, N-octanoyl L-homoserine lactone, reference compound] , state its measured activation at 100 µM.
100

====

Target: CepR (Burkholderia cenocepacia)
Test: CepR agonism in E. coli β-galactosidase reporter (Ec-reporter) JLD271 [pJN105-cepR + pSC11-cepI]
Assay type: cell-based, B. cenocepacia
Details: Table S2, Ec-reporter; screening conc. 100 μM
recorded metric: Act% (%)
Enter your answer as a number in %; do not include the unit.

Using the record for O=C(CCc1ccc(F)cc1)N[C@H]1CCOC1=O , state its measured Act%.
92

Using the record for O=C(CCCc1c[nH]c2ccccc12)N[C@@H]1CCOC1=O , state its measured Act%.
7.2

Using the record for O=C(Cc1cccc(I)c1)N[C@H]1CCOC1=O , state its measured Act%.
43

Using the record for O=C(Cc1ccc(Br)cc1)N[C@H]1CCOC1=O [Control 7, reference compound] , state its measured Act%.
0.2

Using the record for N#Cc1cccc(CC(=O)N[C@H]2CCOC2=O)c1 , state its measured Act%.
4.9

Using the record for O=C(CCCc1c[nH]c2ccccc12)NC1CCCC1 , state its measured Act%.
-4.0

Using the record for O=C(CCc1cccc([N+](=O)[O-])c1)N[C@H]1CCOC1=O , state its measured Act%.
93

Using the record for O=C(Cc1ccc(F)cc1)N[C@H]1CCOC1=O , state its measured Act%.
0.1

Using the record for CCCCCCCCCCCCCC(O)CC(=O)NC1CCOC1=O (stereo not drawn) [3’OH-C16-AHL, reference compound] , state its measured Act%.
8.0

====

Recorded Emax for the following compounds
Target: CepR (Burkholderia cenocepacia, UniProt B4EMD0)
Sequence (B4EMD0 1-239): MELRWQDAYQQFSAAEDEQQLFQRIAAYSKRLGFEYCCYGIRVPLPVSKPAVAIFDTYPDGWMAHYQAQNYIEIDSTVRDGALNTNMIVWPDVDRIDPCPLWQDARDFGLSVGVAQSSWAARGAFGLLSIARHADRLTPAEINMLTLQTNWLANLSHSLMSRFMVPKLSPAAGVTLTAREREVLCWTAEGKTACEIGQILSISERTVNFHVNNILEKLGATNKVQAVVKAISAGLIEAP
Assay: CepR agonism in E. coli β-galactosidase reporter (Ec-reporter) JLD271 [pJN105-cepR + pSC11-cepI]
Type: cell-based, B. cenocepacia
Details: Ec-reporter; activity for 100 μM C8-AHL set to 100%; error ±10%; read-out: Maximal Activation (%)
Procedure: We began our study by screening the AHL library for CepR modulators using an E. coli-based two plasmid reporter system (Ec-reporter)[38]–[40]. […] Cells were grown for 4 h, OD600 was read, 50 μL aliquots from each well were permeabilized in 200 μL Z Buffer, and then 150 μL of this mixture used to measure the cleavage of 25 μL of 4 mg/mL CPRG in phosphate buffered saline (PBS) at 37 °C until positive control wells developed a deep red color (~30 min). […]
Enter your answer as a number in %; do not include the unit.

Illustrative cases are given below, each with its answer.
Return reported Emax for target or system CepR (Burkholderia cenocepacia, UniProt B4EMD0), item CCCCCCCS(=O)(=O)N[C@H]1CCOC1=O [Compound A12] .
46

Return reported Emax for target or system CepR (Burkholderia cenocepacia, UniProt B4EMD0), item O=C(CCc1ccc([N+](=O)[O-])cc1)N[C@H]1CCOC1=O [Compound E37] .
95

Return reported Emax for target or system CepR (Burkholderia cenocepacia, UniProt B4EMD0), item CCCCCCCC(=O)N[C@H]1CCOC1=O [Compound C8-AHL, N-octanoyl L-homoserine lactone, reference compound] .
100

Return reported Emax for target or system CepR (Burkholderia cenocepacia, UniProt B4EMD0), item O=C(CCc1ccc(C(F)(F)F)cc1)N[C@H]1CCOC1=O [Compound E35] .
100

***
Return reported Emax for target or system CepR (Burkholderia cenocepacia, UniProt B4EMD0), item O=C(CCc1ccc(I)cc1)N[C@H]1CCOC1=O [Compound E32] .
97
